- System: CEM cells HIV-1 protection, formazan growth assay
- Test Name: NCI AIDS Antiviral Assay
- Protocol: The ability of compounds to protect human CEM cells from HIV-1 infection is measured as a screen for new compounds capable of inhibiting the HIV virus. Five concentrations of drug were tested on uninfected and infected cells and cell growth was measured using a soluble formazan assay. […] Compounds that provided at least 50% protection were retested. Compounds that provided at least 50% protection on retest were listed as moderately active. […]
Each entry below carries its reported EC50.

// solved cases for EC50 follow
Compound: CSC1NNC2(C(=O)N1)c1ccccc1-c1ccccc12 (stereo not given)
Assay System: CEM cells HIV-1 protection, formazan growth assay
EC50: > 200 µM
//
Compound: Cc1ccc(C)n1-c1ccccc1C1SCCCS1
Assay System: CEM cells HIV-1 protection, formazan growth assay
EC50: > 200 µM
//
Compound: CCc1cccc(C)c1N1C(=O)C(=O)C(c2nc3ccccc3o2)C(=O)C1=O
Assay System: CEM cells HIV-1 protection, formazan growth assay
EC50: > 331 µM
//
Compound: NC(=O)N/N=C(\C(=O)C(=O)Nc1ccc(Cl)c(C(F)(F)F)c1)c1nc2ccc(C(=O)c3ccccc3)cc2[nH]c1=O
Assay System: CEM cells HIV-1 protection, formazan growth assay
EC50: > 61.7 µM
//
Compound: Cc1ccc(C2=C(c3ccc(C)cc3)C(c3ccc(C)cc3)=C(c3ccc(C)cc3)C2=O)cc1
Assay System: CEM cells HIV-1 protection, formazan growth assay
EC50: > 16.2 µM
//
Compound: Nc1ccc(S(=O)(=O)NNc2nc(N3CCCCC3)nc(N3CCCCC3)n2)cc1
Assay System: CEM cells HIV-1 protection, formazan growth assay
EC50: > 200 µM

Okay, next one:
Briefly, EC50 measured for CCCCOC(=O)NC(=O)c1cc2cc(Cl)cc(Cl)c2oc1=O : > 13.8 µM

---

- System: CEM cells HIV-1 protection, formazan growth assay
- Test Name: NCI AIDS Antiviral Assay
- Condition Summary: measured here: growth of uninfected CEM cells
As shown below, each of these molecules has a reported pIC50 value.
Kindly note that pIC50 refers to -log10 of the concentration in mol/L and answer with the value alone.

Reference set (5 entries):
Molecule: Cc1cc(C)nc(NS(=O)(=O)c2ccc(NNc3c4ccccc4nc4c(C(=O)Nc5ccc(S(=O)(=O)Nc6cc(C)on6)cc5)cccc34)cc2)n1
pIC50: 4.46

Molecule: COc1ccccc1C1=Nc2ccccc2N=C(c2ccccc2O)C1
pIC50: 4.03

Molecule: Cc1cc(NCCO)nc2c1ccc1ccccc12
pIC50: 4.65

Molecule: O=C(O)C(=O)O.[NH-]C1CCCC1[NH-].[Pt+2] (stereo unspecified)
pIC50: 5.02

Molecule: Cc1ccc(OCCn2cc(Nc3ccccc3)c(=O)n(CCOc3ccc(C)cc3)c2=O)cc1
pIC50: 3.76

// assay CEM cells HIV-1 protection, formazan growth assay, entry NCCN=C(Nc1ccccc1)Nc1ccccc1 , pIC50 value = 4.53

Considering Cc1c([N+](=O)[O-])c(=O)oc2ccc3c(=O)ccoc3c12 , its pIC50 with CEM cells HIV-1 protection, formazan growth assay was recorded as 5.06

---

Measured pIC50, listed per entry.
- Tested on: CEM cells HIV-1 protection, formazan growth assay
- Test Name: NCI AIDS Antiviral Assay
- Condition Summary: measured here: growth of uninfected CEM cells
Just so you know, pIC50 here is -log10 of the concentration in molar units; reply with that number alone.

Example results:
Compound: O=C(CC(C(=O)c1ccsc1)c1ccccc1)c1ccccc1 (stereo not drawn)
pIC50: 3.76

Compound: CCCCCCCCCCCCCCCC=C(c1cc(Br)c(O)c(C(=O)O)c1)c1cc(Br)c(O)c(C(=O)O)c1
pIC50: 4.27

Compound: C=CCOc1ccc(/C(N=Nc2ccc(Cl)cc2)=N/NC(=O)c2ccccc2)cc1OC
pIC50: 4.06

Compound: CCCCCC=C(c1cc(Br)c(O)c(C(=O)O)c1)c1cc(Br)c(O)c(C(=O)O)c1
pIC50: 3.82

Compound: COc1ccc(CC2COC(=O)[C@@H]2Cc2cccc(O)c2)cc1OC (stereo partly drawn)
pIC50: 3.81

Compound: CC1(c2ccc(Cl)cc2)C2C(=O)NC(=O)C1C(=O)NC2=O (stereo not drawn)
pIC50: 3.31

Reported pIC50 for c1ccc2c(c1)CCc1c-2n(CCN2CCCCC2)c2ccccc12 was 4.97

According to the records, this compound N#Cc1cccc(/C=N/N=C(\N)NO)c1 displays pIC50 of 4.43

// pIC50 lookup, compound = O=C1CC(c2ccc(O)c(O)c2)c2c(cc(O)c3c2O[C@H](c2ccc(O)c(O)c2)[C@H](O)C3)O1 (stereo partly drawn) , result: 4.50

Briefly, pIC50 measured for c1cc(-c2ccsc2-c2ccsc2)cs1 : 4.28

---

- System: CEM cells HIV-1 protection, formazan growth assay
- Test Name: NCI AIDS Antiviral Assay
Reported Endpoint: EC50

Known EC50 results, listed for orientation:
Compound: C=CCOCCCC(=O)C(=[N+]=[N-])C(=O)OC
Value Measured: > 251 µM
//
Compound: O=C1CSCC(=O)O1
Value Measured: > 1910 µM
//
Compound: O=[N+]([O-])/C(Cl)=C(\NCCN/C(C(Cl)=C(Cl)Cl)=C(/Cl)[N+](=O)[O-])C(Cl)=C(Cl)Cl
Value Measured: > 200 µM
//
Compound: CNc1nnc(CNc2ccc(-c3nnc(NC)n3N)cc2)n1N
Value Measured: > 200 µM
//
Compound: CC[C@H](NC(=O)OC(C)(C)C)C(=O)NCP(=O)(OCc1ccc([N+](=O)[O-])cc1)OCc1ccc([N+](=O)[O-])cc1
Value Measured: > 200 µM

Now let's try a different one.
Recorded EC50 (compound Cc1ccc2c(c1)sc1nncn12 ): > 100 µM

---

- System: CEM cells HIV-1 protection, formazan growth assay
- Test Name: NCI AIDS Antiviral Assay
- Condition Summary: measured here: growth of uninfected CEM cells
IC50 for assorted compounds
// units = µM; emit number, no label

Below are worked cases with known answers.
Compound: CC(=N/NC(=S)N1CCCCC1)/C(C)=N\NC(=S)N1CCCCC1
IC50 / µM: 2.24
//
Compound: Cc1c(C2Cc3ccccc3N2C(=O)/C=C\C(=O)O)c2ccccc2n1C (stereo unspecified)
IC50 / µM: 14.5
//
Compound: Cn1c(NNc2ccccc2)cc(=O)[nH]c1=O
IC50 / µM: 28.8

Now look at this one.
Value of IC50 reported for the compound CCN(CC)CCCNc1ccc([N+](=O)[O-])c2nc3ccc(OC)cc3c(NCCCN(CC)CC)c12 is 0.234

---

- System: CEM cells HIV-1 protection, formazan growth assay
- Test Name: NCI AIDS Antiviral Assay
- Description: The ability of compounds to protect human CEM cells from HIV-1 infection is measured as a screen for new compounds capable of inhibiting the HIV virus. Five concentrations of drug were tested on uninfected and infected cells and cell growth was measured using a soluble formazan assay. […] Compounds that provided at least 50% protection were retested. Compounds that provided at least 50% protection on retest were listed as moderately active. […]
pEC50: −log10 of the molar value.
# pEC50 per record follows

The following compounds have reported results that may help.
Compound: O=c1[nH]c(=O)n(C2OC(CO)C(O)C2O)c2nccnc12 (stereo unspecified)
pEC50: < 3.70

Compound: O=C(OC[C@H]1C[C@H]2C(=O)OCCC[C@H]2O1)c1ccccc1
pEC50: < 3.70

Compound: O=C(NC12CC3CC(CC(C3)C1)C2)C(=O)c1c[nH]c2ccc([N+](=O)[O-])cc12
pEC50: < 3.70

Compound: COc1ccc2c(c1)OC[C@@H]1c3cc(O)c(OCc4ccccc4)cc3O[C@H]21
pEC50: 5.04

Measured on CEM cells HIV-1 protection, formazan growth assay, COc1ccc(-c2cc(-c3ccccc3)[nH]c(=S)c2C#N)cc1 has a documented pEC50 of < 3.70

CEM cells HIV-1 protection, formazan growth assay assay, compound C[C@@H](NC(=O)Cn1c(Cl)nc2ccccc21)c1ccccc1 , recorded pEC50 = < 3.70

---

- Tested on: CEM cells HIV-1 protection, formazan growth assay
- Test Name: NCI AIDS Antiviral Assay;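 active = compounds giving half or more protection of infected cells from virus-caused growth loss, again on retest; inactive = the rest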
Please reply with one of these outcomes: True (active), False (inactive)

Molecule: NNC(=S)NNC(N)=O
Label Class: False
--
Molecule: Cc1cccc2c1C(=O)C1(Cc3ccccc3C1=O)C2 (stereo not drawn)
Label Class: False
--
Molecule: COc1cc(-c2oc3c(Cl)cc(Cl)cc3c(=O)c2O)cc(OC)c1OC
Label Class: False
--
Molecule: Nc1nc(SCC(=O)c2ccccc2)nc2nc3c(c(-c4ccccc4)c12)CCCC3
Label Class: False
--
Molecule: COc1ccc(-c2nc(-c3cnccn3)n(C/C=C/c3ccccc3)n2)cc1
Label Class: True

Prompt: How did this test come out for CCOC(=O)C(NC(=O)CC)(Nc1ccc(S(=O)(=O)Nc2ncccn2)cc1)C(F)(F)F (stereo not drawn) ?
Response: False

Prompt: Hello, I am checking results. What call was entered for Cc1ccc(NC(=O)C(=O)C(C(=O)c2ccc3ccccc3c2)C2OC(=O)c3ccccc32)c(C)c1 (stereo not drawn) ?
Response: False

Prompt: What is the recorded call for this molecule in the test? Cc1ccc(NC(=O)CCC(=O)C2CC(=O)CC/C2=N\NC(=O)c2cc3ccccc3cc2O)cc1C (stereo not drawn)
Response: False

Prompt: What did the test return for O=c1n(-c2ccccc2)c(=O)n2n1C1C3C4C5C3C2C5(F)C41 (stereo not drawn) ?
Response: False

Prompt: # fetch the recorded call for CC(=O)CC(=O)N1CCOC1=O here
Response: False

Prompt: # lookup: test call for COC(=O)c1ccc(NCC2=CC(=O)C=CC2=O)cc1O
Response: False

Prompt: What is the recorded call for this molecule in the test? CCOc1ccc(C2OCCC(C)O2)cc1OC (stereo not drawn)
Response: False

Prompt: Could you please tell me the result logged for O=c1c(O)c(-c2ccc(Cl)cc2)oc2ccccc12 in this assay?
Response: False

Prompt: Query: recorded result category for O=C(O)c1nn(-c2ccccc2)c2c1CSc1ccccc1-2 in this test
Response: False

Prompt: Given O=Cc1c2ccccc2n2ccc3c4ccccc4[nH]c3c12 , state the outcome it received in this test.
Response: False

Prompt: Given CCCCCCCCCCCCCCCCOC1OC(CS(=O)(=O)S(=O)(=O)CC2OC(OCCCCCCCCCCCCCCCC)C(O)C(O)C2O)C(O)C(O)C1O (stereo not drawn) , state the outcome it received in this test.
Response: False
